Where do these numbers come from? They come from the supplement of paper PMC4862054.

# System: CAL-120
# test_details: normalised response (% of control), CellTox Green; higher = less cell death (100 = DMSO, 0 = benzethonium chloride kill control)
# setup_conditions: incubation time: 72 h
measure: normalised response (%)
Value expressed in %; do not type the unit.

A selection of reference data follows.
- molecule: "CO[C@H]1C[C@@H]2CC[C@@H](C)[C@@](O)(O2)C(=O)C(=O)N2CCCC[C@H]2C(=O)O[C@H]([C@H](C)C[C@@H]2CC[C@@H](OP(C)(C)=O)[C@H](OC)C2)CC(=O)[C@H](C)/C=C(\\C)[C@@H](O)[C@@H](OC)C(=O)[C@H](C)C[C@H](C)/C=C/C=C/C=C/1C [Ridaforolimus] (10 nM)"
  normalised response (%): 91.5
- molecule: "Cc1ccc(NC(=O)c2ccc(CN3CCN(C)CC3)cc2)cc1Nc1nc(-c2cccnc2)cs1 [Masitinib] (100 nM)"
  normalised response (%): 98.9
- molecule: "CNC(=O)c1cccc(-c2ccc3c(N4CCOC[C@@H]4C)nc(N4CCOC[C@@H]4C)nc3n2)c1 [AZD2014] (10000 nM)"
  normalised response (%): 106

Consider the record given below.
**Query** // normalised response lookup, key: S=P(N1CC1)(N1CC1)N1CC1 [Thio-TEPA] (500 nM)
**Result** 97
